Reference source: patent US20040052750A1

Test system: hairless mice
Assay procedure: Inhibiting the generation of wrinkles in hairless mice (simulated sunlight)
Type: in vivo
Particulars: 10^-8 M; 10 per group
Structures can show the parent of a compound that is named as a salt.
Observation type: Inhibition of wrinkles, Score 2 (moderate)

> print(dat)
                                   molecule  experimental.value
1  COc1ccc(CCN(C)CCCC(C#N)(c2ccc(OC)c(OC)c2)C(C)C)cc1OC (stereo not drawn) [Verapamil HCl]    1 number of mice
2         O=C1NC(=O)C(c2ccccc2)(c2ccccc2)N1    2 number of mice
3                           CCCC(CCC)C(=O)O    1 number of mice
4  COc1ccc([C@@H]2Sc3ccccc3N(CCN(C)C)C(=O)[C@@H]2OC(C)=O)cc1    2 number of mice
5  COC(=O)C1=C(C)NC(C)=C(C(=O)OC)C1c1ccccc1[N+](=O)[O-]    3 number of mice
6  CCOC(=O)C1=C(COCCN)NC(C)=C(C(=O)OC)C1c1ccccc1Cl (stereo not drawn)    1 number of mice

====

Documented Inhibition of wrinkles, Score 3 (high) across a set of compounds
Tested on: hairless mice
Assay procedure: Inhibiting the generation of wrinkles in hairless mice (simulated sunlight)
Assay type: in vivo
Particulars: 10^-3 M; 10 per group
Protocol: 6-week hairless mice were placed into 21 experimental groups and 3 control groups, with 10 rats per group. […] The experimental protocol in detail is as follows. Hairless mice were radiated using simulated sunlight at a dose of 2 MED (double Minimal Erythema Dose) 3 days a week for […], thereby generating wrinkles. […] Degrees of inhibition of generated wrinkles were determined. […]
Where a name gives a salt, the structure may show the parent alone.
Observation type: Inhibition of wrinkles, Score 3 (high)

> print(dat)
                                   compound                        observation.type  experimental.value
1  CCOC(=O)C1=C(COCCN)NC(C)=C(C(=O)OC)C1c1ccccc1Cl (stereo not drawn)  Inhibition of wrinkles, Score 3 (high)    8 number of mice
2  COc1ccc([C@@H]2Sc3ccccc3N(CCN(C)C)C(=O)[C@@H]2OC(C)=O)cc1  Inhibition of wrinkles, Score 3 (high)    7 number of mice
3  COc1ccc(CCN(C)CCCC(C#N)(c2ccc(OC)c(OC)c2)C(C)C)cc1OC (stereo not drawn) [Verapamil HCl]  Inhibition of wrinkles, Score 3 (high)    9 number of mice
4                           CCCC(CCC)C(=O)O  Inhibition of wrinkles, Score 3 (high)    8 number of mice
5         O=C1NC(=O)C(c2ccccc2)(c2ccccc2)N1  Inhibition of wrinkles, Score 3 (high)    7 number of mice
6  COC(=O)C1=C(C)NC(C)=C(C(=O)OC)C1c1ccccc1[N+](=O)[O-]  Inhibition of wrinkles, Score 3 (high)    5 number of mice

====

Tested on: fibroblasts derived from a human
Assay procedure: Promoting collagen production in fibroblasts (3H-proline incorporation into collagenase-sensitive protein)
Assay type: cell-based
Particulars: 10^-6 M; control = 100%
Protocol: The experimental protocol in detail is as follows. Human-derived fibroblasts were transferred to a 24 well plate and cultured in a medium containing 10% fetal bovine serum (FBS) for 24 hours, followed by washing twice with phosphate buffered saline. […] The amount of radioactivity incorporated into collagenase-sensitive protein was measured and compared with that of the other fraction which was not treated with collagenase. […]
Counter-ions that a name gives are not always drawn.
Observation type: Effect of promoting collagen production in fibroblasts (rate of collagen production) (%)

> print(dat)
                                   compound  experimental.value
1           CCCC(CCC)C(=O)O [Valproic acid]              332.11
2  O=C1NC(=O)C(c2ccccc2)(c2ccccc2)N1 [Phenytoin]              360.65
3  CCOC(=O)C1=C(COCCN)NC(C)=C(C(=O)OC)C1c1ccccc1Cl (stereo not drawn) [Amoldipine]              330.42
4  COc1ccc([C@@H]2Sc3ccccc3N(CCN(C)C)C(=O)[C@@H]2OC(C)=O)cc1 [Diltiazem]              321.23
5  COc1ccc(CCN(C)CCCC(C#N)(c2ccc(OC)c(OC)c2)C(C)C)cc1OC (stereo not drawn) [Verapamil HCl]              331.09
6  COC(=O)C1=C(C)NC(C)=C(C(=O)OC)C1c1ccccc1[N+](=O)[O-] [Nifedipine]              330.30
